test_system: human GABAA α5β2γ1 receptor (Homo sapiens (Human), UniProt P31644+Q8N1C3)
experimental_protocol: Radioligand binding assay, [3H]RO7239181 competition, γ1-containing GABAA subtypes
test_conditions: HEK293F membranes, mean of two determinations
Procedure: The affinity of compounds at GABAA γ1 subunit-containing receptors was measured by competition for [^3H]RO7239181 (67.3 Ci/mmol; Roche) binding to membranes from HEK293F cells (ThermoFisher R79007) expressing human (transiently transfected) receptors of composition α5β2γ1, α2β2γ1, α1β2γ1. […]
Rule: measured Ki below 3 nM gets true (1); anything equal to or greater than 3 nM gets false (0).

Query: Does the reported Ki of "Cc1cc(-c2nnc3n2-c2ccc(Cl)c(Cl)c2C(c2c(F)cccc2F)=N[C@H]3C)ncn1" stay below 3 nM?
Reply: true (1)

Query: Next compound up: "C[C@@H]1N=C(c2ccccc2F)c2c(ccc(Br)c2Cl)-n2c(-c3cccnn3)nnc21"
Reply: true (1)

Query: Next compound up: "Cc1nnc2n1-c1ccc(Cl)c(Cl)c1C(c1c(F)cccc1F)=N[C@H]2C"
Reply: true (1)

Query: Next compound up: "C[C@@H]1N=C(c2ncccc2F)c2c(ccc(Br)c2Cl)-n2cnnc21"
Reply: false (0)

Query: Next compound up: "C[C@@H]1N=C(c2c(F)cccc2F)c2c(ccc(Br)c2Cl)-n2cnnc21"
Reply: true (1)

Query: Next compound up: "Cc1nnc2n1-c1ccc(C(F)(F)F)c(Cl)c1C(c1c(F)cccc1F)=N[C@H]2CO"
Reply: false (0)

Query: Next compound up: "Cc1nnc2n1-c1ccc(C(C)(F)F)c(Cl)c1C(c1c(F)cccc1F)=N[C@H]2C"
Reply: false (0)

Query: Next compound up: "C[C@@H]1N=C(c2c(F)cccc2F)c2c(ccc(Cl)c2Br)-n2c(-c3cnn(C)c3)nnc21"
Reply: false (0)

Query: Next compound up: "COC[C@@H]1N=C(c2c(F)cccc2F)c2c(ccc(Br)c2Cl)-n2c(C)nnc21"
Reply: false (0)

Query: Next compound up: "Cc1ccc2c(c1Cl)C(c1c(F)cccc1F)=N[C@@H](C)c1nnc(C)n1-2"
Reply: true (1)

* * *

test_system: human GABAA α2β2γ1 receptor (Homo sapiens (Human), UniProt P47869+Q8N1C3)
experimental_protocol: Radioligand binding assay, [3H]RO7239181 competition, γ1-containing GABAA subtypes
test_conditions: HEK293F membranes, [3H]RO7239181 20-30 nM, mean of two determinations; read-out: Ki h-GABAA α2β2γ1
property_name: pKi
// pKi here means minus log10 of the molar concentration (mol/L)

Query: Data request, read-out pKi, for Cc1ccc2c(c1Cl)C(c1c(F)cccc1F)=N[C@@H](C)c1nnc(C)n1-2 [Example 97]
Reply: 7.57

Query: Next compound up: C[C@@H]1N=C(c2c(F)cccc2F)c2c(ccc(C(F)(F)F)c2Cl)-n2c(CO)nnc21 [Example 103]
Reply: 7.30

Query: Next compound up: C[C@@H]1N=C(c2c(F)cccc2F)c2c(ccc(Cl)c2Br)-n2c(-c3ccncn3)nnc21 [Example 74]
Reply: 7.76

Query: Next compound up: C[C@@H]1N=C(c2ncccc2F)c2c(ccc(Cl)c2Cl)-n2c(-c3cccnn3)nnc21 [Example 63]
Reply: 7.40

Query: Next compound up: COC[C@@H]1N=C(c2c(F)cccc2F)c2c(ccc(C(F)(F)F)c2Cl)-n2c(C)nnc21 [Example 105]
Reply: 7.00

Query: Next compound up: Cc1nnc2n1-c1ccc(C(C)(F)F)c(Cl)c1C(c1c(F)cccc1F)=N[C@H]2C [Example 93]
Reply: 7.41

Ref: patent US20240002393A1
